System: OVCAR-8 ovarian
Assay: NCI tumour cell line growth inhibition, 48 h; in the data active = GI50 below about 0.43 µM; inactive = the rest
Classes used: active, inactive

In [3]: df
Out[3]:
                                    compound  category
 0                         NC(=O)c1cccc(N)c1  inactive
 1  CN(C)c1cc2c(Nc3ccc4nc(Cc5ccccc5)[nH]c4c3)ncnc2cn1  inactive
 2  O=C1OCC2=C1C(c1ccccc1)c1cc3c(cc1N2CCO)CCC3 (stereo unspecified)    active
 3  C=C1CCCC(C)(C)[C@@H]1CC/C(C)=C/Cn1c2cccc(=O)c-2nc2ccccc21  inactive
 4        CCc1ccc(/C(C#N)=C/C=C/c2ccccc2)cc1  inactive
 5  COC(=O)c1c2c(c[n+]([O-])c1C)C(=O)C(NCc1ccccc1)=CC2=O    active
 6  C[CH2][Sn]1([CH2]C)[O]C2C(O)OC(CO)C(O)C2[O]1 (stereo unspecified)  inactive
 7  [Ce+3].[Cl-].[O-]/N=C(\c1ccccc1)c1ccccn1.[O-]/N=C(\c1ccccc1)c1ccccn1.[O-]/N=C(\c1ccccc1)c1ccccn1  inactive
 8                Clc1ccc(N/N=C/c2ccccn2)nc1    active
 9          Cc1oncc1C(=O)Nc1ccc(C(F)(F)F)cc1  inactive
10   S=C(Nc1ccc(-c2nc3ccccc3s2)cc1)Nc1ccccn1  inactive

----------
System: SK-OV-3 ovarian
Test: NCI tumour cell line growth inhibition, 48 h; in the data active = GI50 below about 0.43 µM; inactive = the rest
Classes used: active, inactive

In [3]: df
Out[3]:
                                    compound  category
 0  COc1cccc(C2=NN(C(C)=O)C(c3cc(OC)c(OC)c(OC)c3)C2)c1 (stereo unspecified)  inactive
 1  O=C(O[C@H]1CN[C@H](C#Cc2cc3ncnc(Nc4ccc(Cc5ccccc5)cc4)c3s2)C1)N1CCOCC1    active
 2  O=Cc1ncc(-c2ccc(C(F)(F)F)cc2)c(NC2CCCCCC2)n1  inactive
 3  Nc1cccc(-c2nc3sccn3c2-c2ccnc(NCCCNS(=O)(=O)c3ccc(C(F)(F)F)cc3)n2)c1  inactive
 4  O=C1OCC2=C1C(c1ccccc1)c1cc3c(cc1N2CCO)CCC3 (stereo unspecified)    active
 5  COc1cc2c3c(n(CCCN=[N+]=[N-])c(=O)c2cc1OC)-c1ccc(N)cc1C3=O    active
 6  COc1cc(C2=Nc3c/c(=C\c4c(O)[nH]c5ccc(Cl)cc45)ccc3=N2)cc(OC)c1OC  inactive
 7  COc1cc(-c2nn(C)nc2-c2cc3ccccc3s2)cc(OC)c1OC    active
 8          Nc1ccccc1C#Cc1ccccc1C#Cc1ccccc1N  inactive
 9  CCCCC(SC(=S)N(CC)CC)C(=O)Nc1nc(CC(=O)OCC)cs1 (stereo unspecified)  inactive
10  C[C@H](Nc1ccc(C#N)n(C)c1=O)c1cc2cc(Cl)ccc2[nH]c1=O  inactive

----------
Tested on: RXF-631 renal
Experiment: NCI tumour cell line growth inhibition, 48 h
Quick reference for TGI among some compounds
Endpoint: TGI

                                    compound  observed_result
 0  CCC[CH2][Sn]([CH2]CCC)([O]C(=O)c1cc(OC)c(OC)c(OC)c1)[O]C(=O)c1cc(OC)c(OC)c(OC)c1          1.83 µM
 1  NC1=NN(c2ccccc2)C(=O)C1C(=O)C(=O)NC1C2CC3CC(C2)CC1C3 (configuration not stated)         > 100 µM
 2  CC(C)Cc1ccc(C(C)/C=C2\CCC(CN3CCOCC3)C2=O)cc1 (configuration not stated)          41.2 µM
 3    CC(C)CC(=O)N1CCN(C(=O)CC(C)C)c2ccccc21         > 100 µM
 4  CCOC(=O)C(C)OC(=O)c1ccc(C)cc1 (configuration not stated)         > 100 µM
 5             CNC(=S)NNC(=O)c1c(C)nc2sccn12         > 100 µM
 6  CC1C(=O)CCC1C(Sc1ccccc1)(Sc1ccccc1)Sc1ccccc1 (configuration not stated)         > 100 µM
 7      CCOC(=O)/C(=C/c1cc(OC)ccc1OC)CC(=O)O         > 100 µM
 8               CCCCCCCCC(=O)CCCCCCCCC(=O)O          44.1 µM
 9  Cn1nc(-c2ccccc2)c(C(=O)/C=C/c2ccccc2)c(N2CCCCC2)c1=O         > 100 µM
10  CC(=O)c1cc2c3c(c1)c1cc4c(cc1c(=O)n3CC2)OCO4         > 100 µM
11  CCOC(=O)NC(=O)c1cn(CCCCCCCCCCC(=O)N2CCN(CCn3cc(C(=O)NC(=O)OCC)c(=O)[nH]c3=O)CC2)c(=O)[nH]c1=O         > 100 µM
